# PROTOCOL DETAILS: In vivo biodistribution in mice
# Set-up: species or system normal CD-1 male mice
# RECORDED CONDITIONS: iv, 2 min
# Method: Biodistribution experiments were performed by intravenously administering ^68Ga labeled 1a-h, 2, 3, BPAMD, and [^18F]NaF into normal, healthy male CD-1 mice (25-30 g). The injection activity was 20-30 μCi/animal. […] Organs of interest were harvested, weighed, and counts of radioactivity were measured by a gamma counter. The biodistribution of each sample was calculated as a percentage of the injected dose per gram of wet tissue weight (% ID/g). […]
Listed here: items and their measured bone to muscle ratio.
OBSERVABLE: bone to muscle ratio

COMPOUND: O=C([O-])CN(CCN(CC(=O)[O-])Cc1cc(CCC(=O)NC(P(=O)(O)O)P(=O)(O)O)ccc1[O-])Cc1cc(CCC(=O)NC(P(=O)(O)O)P(=O)(O)O)ccc1[O-].[68Ga+3] [[^68Ga]2]
OBSERVED: 4.9

COMPOUND: O=C([O-])CN(CCN(CC(=O)[O-])Cc1cc(CCC(=O)NC(P(=O)(O)O)P(=O)(O)O)ccc1[O-])Cc1cc(CCC(=O)NCC(=O)O)ccc1[O-].[68Ga+3] [[^68Ga]1c]
OBSERVED: 5

COMPOUND: O=C([O-])CN(CCN(CC(=O)[O-])Cc1cc(CCC(=O)N[C@@H](CC(=O)O)C(=O)O)ccc1[O-])Cc1cc(CCC(=O)NC(P(=O)(O)O)P(=O)(O)O)ccc1[O-].[68Ga+3] [[^68Ga]1e]
OBSERVED: 5
